Taken from PubChem BioAssay (NCI).

System: K-562 leukemia
Experiment: NCI tumour cell line growth inhibition, 48 h
Assay metric: TGI

For orientation, consider the following solved cases.
Molecule	Experimental system	TGI
N#CC1(C#N)NC(c2cccs2)C(C#N)(C#N)NC1c1cccs1 (configuration not stated)	K-562 leukemia	56.3 µM
O=C1CCCCC1S(=O)(=O)c1ccccc1 (configuration not stated)	K-562 leukemia	> 100 µM
CC1=C(c2cccc(O)c2)[C@H](c2ccc(OCCN3CC(CF)C3)cc2)Oc2ccc(O)cc21	K-562 leukemia	17.9 µM
COc1cc2c[n+](C)c3c4cc(OC)c(OC(C)C)cc4ccc3c2cc1OC	K-562 leukemia	> 100 µM

Task item: Consider the molecule CCOC(=O)CCC(NC(=O)OCc1ccccc1)C(=O)NC(CCC(=O)OCC)C(=O)NC(CCC(=O)OCC)C(=O)NC(CCC(=O)OCC)C(=O)NC(CCC(=O)OCC)C(=O)NC(CCC(=O)OCC)C(=O)NC(CCC(=O)OCC)C(=O)OCC (configuration not stated) and give its measured TGI.
Reply: > 100 µM

Task item: Consider the molecule O=C1C=CC(=O)C2=C1[C@@H](O)C1CC=CC3C(=O)O[C@@H]2C31 (some centres not stated) and give its measured TGI.
Reply: > 61.5 µM

Task item: Consider the molecule CC(=O)OCC1OC(SC2=N/C(=C\c3ccc(Br)s3)C(=O)N2CN2CCOCC2)C(OC(C)=O)C(OC(C)=O)C1OC(C)=O (configuration not stated) and give its measured TGI.
Reply: 45.7 µM

Task item: Consider the molecule Cc1cc([N+](=O)[O-])c(NS(=O)(=O)c2cccc(C(=O)O)c2)cc1-c1cccnc1 and give its measured TGI.
Reply: > 100 µM

Task item: Consider the molecule COC1CC(O[C@H]2CC[C@@]3(C)[C@H](CC[C@@H]4[C@@H]3CC[C@]3(C)[C@@H](C5=CC(=O)OC5)[C@@H](OC(C)=O)C[C@]43O)C2)OC(C)C1O (some centres not stated) and give its measured TGI.
Reply: < 0.0135 µM

Task item: Consider the molecule CSCCC(N)C(=O)NCCNc1ccc(NCCNC(=O)C(N)CCSC)c2c1C(=O)c1ccccc1C2=O (configuration not stated) and give its measured TGI.
Reply: > 100 µM

Task item: Consider the molecule CC1(C)N/C(=C\C=O)C(C)(C)N1O and give its measured TGI.
Reply: > 100 µM

Task item: Consider the molecule CCCC(=O)NC(Nc1ccc(S(=O)(=O)Nc2cc(C)on2)cc1)(C(=O)OCC)C(F)(F)F (configuration not stated) and give its measured TGI.
Reply: > 100 µM

Task item: Consider the molecule CC1=C(C(=O)Nc2ccc3n[nH]c(C)c3c2)C(c2ccc(C(F)(F)F)cc2)CC(=O)N1 (configuration not stated) and give its measured TGI.
Reply: > 25 µM

====

Below is a list of entries, each paired with its recorded TGI value.
System: COLO 205 colon
Assay: NCI tumour cell line growth inhibition, 48 h

For orientation, consider the following solved cases.
Molecule	Experimental system	Assay metric	Test value
NCCCC[C@@H]1NC(=O)[C@H]2CCCN2C(=O)[C@H](Cc2ccccc2)CNC(=O)[C@H](Cc2ccccc2)NC1=O	COLO 205 colon	TGI	> 37.5 µM
Cc1cccc(Nc2nn3c(=O)c4c5c(sc4nc3s2)CCCC5)c1	COLO 205 colon	TGI	> 100 µM
CSc1nnc(CCC(=O)Nc2c(C)cccc2C)o1	COLO 205 colon	TGI	> 100 µM

Task item: Consider the molecule Cc1csc(NC23CC4CC(CC(C4)C2)C3)[n+]1C(P(=O)([O-])O)P(=O)(O)O (configuration not stated) and give its measured TGI.
Reply: > 100 µM

Task item: Consider the molecule C#CC#CC#CC#CC#CC#CC#CC#CCC1OCC(COC(=O)O[C@@H](C(=O)O[C@H]2C[C@@]3(O)[C@@H](OC(=O)c4ccccc4)[C@@H]4[C@]5(OC(C)=O)CO[C@@H]5C[C@H](O)[C@@]4(C)C(=O)[C@H](OC(C)=O)C(=C2C)C3(C)C)[C@@H](NC(=O)c2ccccc2)c2ccccc2)O1 (some centres not stated) and give its measured TGI.
Reply: > 26.8 µM

Task item: Consider the molecule CSCCC(N)C(=O)NCCNc1ccc(NCCNC(=O)C(N)CCSC)c2c1C(=O)c1ccccc1C2=O (configuration not stated) and give its measured TGI.
Reply: 3.13 µM

Task item: Consider the molecule O=C(/C=C/Sc1cc(C(F)(F)F)cc(C(F)(F)F)c1)c1ccc(Cl)cc1 and give its measured TGI.
Reply: 6.6 µM

====

Test system: HCT-116 colon
Experiment: NCI tumour cell line growth inhibition, 48 h
Assay metric: TGI (µM)
Enter your answer as a number in µM; do not include the unit.

Compound	Assay metric	Test value
CCCCCCCCCCCCCCCC(=O)OCC1OC(n2cc(F)c(=O)[nH]c2=O)C(N)C(O)C1O (centres undefined)	TGI	34.4

Task item: Consider the compound O=C(N/N=C/C=C/c1ccc([N+](=O)[O-])o1)c1cc2ccccc2cc1O and give its measured TGI.
Reply: 1.4

====

Tested on: HOP-62 NSCLC
Test: NCI tumour cell line growth inhibition, 48 h
Below is a list of entries, each paired with its recorded TGI value.

For orientation, consider the following solved cases.
Molecule	TGI
O=C1C=CC(=O)C2=C1[C@@H](O)C1CC=CC3C(=O)O[C@@H]2C31 (stereo partly drawn)	> 100 µM
COc1cc(OC)c2nc(C)c3c(c2c1)SCC3	34.6 µM

Next molecule, please.
Task item: Consider the molecule CC(C)=NN/C(=N\S(=O)(=O)c1ccc(Oc2cccc(Cl)c2C#N)cc1)Nc1ccc(Cl)cc1 and give its measured TGI.
Reply: > 100 µM

====

Below is a list of entries, each paired with its recorded log10 TGI value.
Test system: SK-MEL-2 melanoma
Assay: NCI tumour cell line growth inhibition, 48 h
The base-10 logarithm of TGI, taken with TGI in µM, is what appears here.

For orientation, consider the following solved cases.
Molecule	log10 TGI
CCCCCCCC/C=C\CCCCCCC/C=C1\C[C@](/C=C/C(=O)OC)(CO)OC1=O	1.38
CCCCOC(=O)N1CCN(/[N+]([O-])=N/Oc2ccc([N+](=O)[O-])cc2[N+](=O)[O-])CC1	1.34
Cc1cc(NC(=O)NC(=O)c2ccccc2NC(=O)C(C)N)ccc1Oc1ncc(Br)cn1 (stereo not drawn)	0.82
CN1CCN(C(=O)C(C)(C)c2ccc(C(=O)Nc3cn4cc(-c5ccncc5)ccc4n3)cc2)CC1	0.21
O=C1OCC2=C1C(c1cccc(Cl)c1)c1cc3c(cc1N2CCO)OCCO3 (stereo not drawn)	-0.22

Next molecule, please.
Task item: Consider the molecule O=C(C/C(=N/O)C(=O)NC1=C(Cl)C(=O)c2ccccc2C1=O)CC(c1ccccc1)c1c(O)c2ccccc2oc1=O (stereo not drawn) and give its measured log10 TGI.
Reply: 1.51

====

Test system: COLO 205 colon
Assay: NCI tumour cell line growth inhibition, 48 h; in the data active means GI50 below about 0.43 µM; inactive means the rest
Give one outcome, nothing more. List: yes (1) (active), no (0) (inactive)

Worked examples, 2 molecules total:
Molecule	Assigned class
O=C1C(Nc2ccc(Cl)cc2)=C(I)C(=O)c2ncccc21	no (0)
C[C@H]1CC[C@@]2(NC1)O[C@H]1C[C@H]3[C@@H]4CC[C@H]5C[C@@H](O)CC[C@]5(C)[C@H]4CC[C@]3(C)[C@H]1[C@@H]2C	no (0)

Task item: Test call, this molecule: CC[C@@]1(O)C(=O)OCc2c1cc1n(c2=O)Cc2cc3cc4c(cc3nc2-1)OCO4
Reply: yes (1)

Task item: Test call, this molecule: Cc1cc(F)ccc1S(=O)(=O)Nc1cc(-c2c(O)ccc3ccccc23)c(O)c2ccccc12
Reply: no (0)

====

Test system: EKVX NSCLC
Experiment: NCI tumour cell line growth inhibition, 48 h
Below is a list of entries, each paired with its recorded GI50 value.

Compound	GI50
O=C1OCC2=C1C(c1cccc(Cl)c1)c1cc3c(cc1N2CCO)OCCO3 (configuration not stated)	1.54 µM
COc1ccc2c(CN3CCCC[C@H]3C(=O)O)cc3cc4c(cc3c2c1)OCO4	3 µM
CC(=O)[CH-]C(=O)c1ccccc1.CC(=O)[CH-]C(=O)c1ccccc1.CC[O-].CC[O-].[Hf+4]	38.2 µM
CCCCOC(=O)N1CCN(/[N+]([O-])=N/Oc2ccc([N+](=O)[O-])cc2[N+](=O)[O-])CC1	8.01 µM
O=C1C(Nc2ccc(Cl)cc2)=C(I)C(=O)c2ncccc21	1.71 µM

Task item: Consider the compound CC1=C(c2cccc(O)c2)[C@H](c2ccc(OCCN3CC(CF)C3)cc2)Oc2ccc(O)cc21 and give its measured GI50.
Reply: 9.61 µM

Task item: Consider the compound C=CCN=C(N/N=C/c1ccc([N+](=O)[O-])o1)NS(=O)(=O)c1cc(C(=O)Nc2ccc(Cl)cc2)c(Cl)cc1SC and give its measured GI50.
Reply: 2.63 µM

Task item: Consider the compound Cc1c(C(=O)Nc2ccccc2)sc2ncn(Cc3cccc(Cl)c3)c(=O)c12 and give its measured GI50.
Reply: 30.2 µM

Task item: Consider the compound COc1ccc(CCN2CC=Cn3c2nc2ccccc2c3=O)cc1 and give its measured GI50.
Reply: 0.185 µM

Task item: Consider the compound O=C(/C=C/Sc1cc(C(F)(F)F)cc(C(F)(F)F)c1)c1ccc(Cl)cc1 and give its measured GI50.
Reply: 14.3 µM

Task item: Consider the compound Cc1cc(F)ccc1S(=O)(=O)Nc1cc(-c2c(O)ccc3ccccc23)c(O)c2ccccc12 and give its measured GI50.
Reply: 1.93 µM

Task item: Consider the compound Cc1cccc(/C=N/NC(=S)N2CCCC2)n1 and give its measured GI50.
Reply: 3.18 µM
